Experiment summary: Acute oral toxicity, 14 days observation
Measurement setup: rat, in vivo, 500 mg/kg
Measured attribute: mortality at 336 h (%)

Compound: CCC(O)(c1ccc(O)cc1)c1ccccc1C(F)(F)F (centres unmarked)
Measured attribute: mortality at 336 h
Value observed: 0
--
Compound: CCC(O)(c1ccc(O)cc1)c1cccc(Cl)c1 (stereo not drawn) [B, 3-chloro-4'-hydroxy-α-ethyl-benzhydrol]
Measured attribute: mortality at 336 h
Value observed: 0
